target: Cytochrome P450 2C9 (Homo sapiens, UniProt P11712)
Sequence (P11712 whole entry): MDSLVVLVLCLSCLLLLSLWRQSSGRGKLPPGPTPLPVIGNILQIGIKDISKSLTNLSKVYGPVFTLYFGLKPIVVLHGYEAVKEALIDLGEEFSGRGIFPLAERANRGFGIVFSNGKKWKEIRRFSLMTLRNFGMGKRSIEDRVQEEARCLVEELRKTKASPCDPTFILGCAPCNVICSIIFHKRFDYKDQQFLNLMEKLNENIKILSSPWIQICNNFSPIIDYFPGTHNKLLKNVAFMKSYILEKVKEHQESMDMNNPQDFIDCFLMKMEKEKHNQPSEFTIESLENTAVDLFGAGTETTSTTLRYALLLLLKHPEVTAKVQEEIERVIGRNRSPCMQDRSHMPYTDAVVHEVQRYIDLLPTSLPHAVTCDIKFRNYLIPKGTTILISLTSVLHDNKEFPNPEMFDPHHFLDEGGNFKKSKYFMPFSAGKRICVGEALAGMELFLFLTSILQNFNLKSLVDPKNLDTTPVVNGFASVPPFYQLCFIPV
pIC50: −log10 of the molar value.
endpoint.label: pIC50

Notebook: pull reported pIC50 for Cytochrome P450 2C9 (Homo sapiens, UniProt P11712), entry CNC(=O)[C@@]12C[C@@H]1[C@@H](n1cnc3c(NC)nc(C#Cc4ccc(Cl)s4)nc31)[C@H](O)[C@@H]2O < 5.00

====

Target: Adenosine receptor A1 (Homo sapiens)
Sequence (whole entry): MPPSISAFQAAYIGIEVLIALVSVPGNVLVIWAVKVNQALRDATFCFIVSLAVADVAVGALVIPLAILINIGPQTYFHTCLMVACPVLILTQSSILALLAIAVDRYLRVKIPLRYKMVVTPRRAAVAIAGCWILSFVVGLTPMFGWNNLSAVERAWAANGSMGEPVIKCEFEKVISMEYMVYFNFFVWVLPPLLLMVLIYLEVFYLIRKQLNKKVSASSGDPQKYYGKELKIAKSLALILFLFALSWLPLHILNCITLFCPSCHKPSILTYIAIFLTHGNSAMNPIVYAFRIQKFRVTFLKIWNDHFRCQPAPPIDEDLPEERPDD
Assay: Displacement of [3H]R-PIA from human recombinant A1 adenosine receptor expressed in CHO cells at 10 uM after 60 mins by liquid scintillation counting
Format: cell-based
endpoint.label: inhibition

These solved cases illustrate the format of a correct answer.
# compound, target.or.test.system, inhibition
rows = [
    ("CNC(=O)[C@@]12C[C@@H]1[C@@H](n1cnc3c(NC)nc(C#Cc4cccnn4)nc31)[C@H](O)[C@@H]2O", "Adenosine receptor A1 (Homo sapiens)", "11%"),
    ("CNC(=O)[C@@]12C[C@@H]1[C@@H](n1cnc3c(NC)nc(C#Cc4ccccc4F)nc31)[C@H](O)[C@@H]2O", "Adenosine receptor A1 (Homo sapiens)", "20%"),
    ("CNC(=O)[C@@]12C[C@@H]1[C@@H](n1cnc3c(NC)nc(C#Cc4nccs4)nc31)[C@H](O)[C@@H]2O", "Adenosine receptor A1 (Homo sapiens)", "31%"),
    ("CNC(=O)[C@@]12C[C@@H]1[C@@H](n1cnc3c(NC)nc(C#Cc4cccc(C(F)(F)F)c4)nc31)C(O)C2O (single isomer, unassigned)", "Adenosine receptor A1 (Homo sapiens)", "10%"),
    ("CNC(=O)[C@@]12C[C@@H]1[C@@H](n1cnc3c(NC)nc(C#Cc4cc[nH]n4)nc31)[C@H](O)[C@@H]2O", "Adenosine receptor A1 (Homo sapiens)", "30%"),
    ("CNC(=O)[C@@]12C[C@@H]1[C@@H](n1cnc3c(NC)nc(C#Cc4cc(C)c(C)o4)nc31)[C@H](O)[C@@H]2O", "Adenosine receptor A1 (Homo sapiens)", "15%"),
    ("CNC(=O)[C@@]12C[C@@H]1[C@@H](n1cnc3c(NC)nc(C#Cc4cc5ccccc5o4)nc31)[C@H](O)[C@@H]2O", "Adenosine receptor A1 (Homo sapiens)", "13%"),
    ("CCc1ccc(C#Cc2nc(NC)c3ncn([C@H]4[C@H](O)[C@H](O)[C@]5(C(=O)NC)C[C@H]45)c3n2)o1", "Adenosine receptor A1 (Homo sapiens)", "18%"),
]

Give me inhibition for each of these compounds, listed below.
1. CNC(=O)[C@@]12C[C@@H]1[C@@H](n1cnc3c(NC)nc(C#Cc4ccccc4OC)nc31)[C@H](O)[C@@H]2O
2. CNC(=O)[C@@]12C[C@@H]1[C@@H](n1cnc3c(NC)nc(C#CC4CC4)nc31)[C@H](O)[C@@H]2O

12%
38%

====

target: Adenosine receptor A1 (Homo sapiens) (UniProt P30542); experiment: Displacement of [3H]R-PIA from human recombinant A1 adenosine receptor expressed in CHO cells at 10 uM after 60 mins by liquid scintillation counting; format: cell-based
endpoint.label: inhibition (%)
Give bare numbers, in %.

# smiles, reported.result
records = [
    ("CNC(=O)[C@@]12C[C@@H]1[C@@H](n1cnc3c(NC)nc(C#Cc4cnn(C)c4)nc31)[C@H](O)[C@@H]2O", 35),
    ("CNC(=O)[C@@]12C[C@@H]1[C@@H](n1cnc3c(NC)nc(C#Cc4ccccc4)nc31)[C@H](O)[C@@H]2O", 18),
]

Could you now consider this next molecule?
Please report the recorded inhibition for CNC(=O)[C@@]12C[C@@H]1[C@@H](n1cnc3c(NC)nc(C#Cc4ccncc4)nc31)[C@H](O)[C@@H]2O . 15
